System: 60 cancer cell lines (NCI 60 cancer cell line series)
assay-overview: NCI-DTP in vitro cancer screen, sulforhodamine B (SRB) growth inhibition, 48 hour exposure
Type: cell-based, human
conditions: Breast MDA-N CL5012
Counter-ions that a name gives are not always drawn.
For each entry below, report its classification of cell line as Low(1), Medium(2), High(3) sensitivity to compound value.
Give bare numbers.

Check out these entries, answers already filled in.
| compound | assayed-system | reported |
| --- | --- | --- |
| COc1cccc2c1C(=O)c1c(O)c3c(c(O)c1C2=O)C[C@@](O)(C(=O)CO)C[C@@H]3OC1CC(N)CC(C)O1.Cl (stereo partly shown) | 60 cancer cell lines (NCI 60 cancer cell line series) | 2 |
| COc1cccc2c1C(=O)c1c(O)c3c(c(O)c1C2=O)C[C@@](O)(C(C)=O)C[C@@H]3O[C@H]1C[C@H](N)[C@H](O)[C@H](C)O1 | 60 cancer cell lines (NCI 60 cancer cell line series) | 1 |
| O=c1[nH]cc(F)c(=O)[nH]1 | 60 cancer cell lines (NCI 60 cancer cell line series) | 2 |
| N.N.[Cl][Pt][Cl] [cisplatin, cis-Diamminedichloroplatinum (II), reference compound] | 60 cancer cell lines (NCI 60 cancer cell line series) | 2 |
| CC[C@]1(O)C[C@@H]2CN(CCc3c([nH]c4ccccc34)[C@@](C(=O)OC)(c3cc4c(cc3OC)N(C)[C@H]3[C@@](O)(C(=O)OC)[C@H](OC(C)=O)[C@]5(CC)C=CCN6CC[C@]43[C@@H]65)C2)C1 [Vinblastine sulfate] | 60 cancer cell lines (NCI 60 cancer cell line series) | 3 |
| CS(=O)(=O)OCCCCOS(C)(=O)=O | 60 cancer cell lines (NCI 60 cancer cell line series) | 2 |
| COc1cc([C@@H]2c3cc4c(cc3[C@@H](O[C@@H]3O[C@@H]5CO[C@@H](C)O[C@H]5[C@H](O)[C@H]3O)[C@H]3COC(=O)[C@H]23)OCO4)cc(OC)c1O [Etoposide] | 60 cancer cell lines (NCI 60 cancer cell line series) | 3 |
| O=C(O)CCCc1ccc(N(CCCl)CCCl)cc1 | 60 cancer cell lines (NCI 60 cancer cell line series) | 1 |
| N[C@@H](Cc1ccc(N(CCCl)CCCl)cc1)C(=O)O | 60 cancer cell lines (NCI 60 cancer cell line series) | 2 |
| COc1cccc2c1C(=O)c1c(O)c3c(c(O)c1C2=O)C[C@@](O)(C(=O)CO)C[C@@H]3O[C@H]1C[C@H](N)[C@H](O)[C@H](C)O1 | 60 cancer cell lines (NCI 60 cancer cell line series) | 2 |

Below are 6 compounds. Give each one its classification of cell line as Low(1), Medium(2), High(3) sensitivity to compound.
1. Sc1ncnc2nc[nH]c12
2. COc1cc([C@@H]2c3cc4c(cc3[C@@H](O[C@@H]3O[C@@H]5CO[C@@H](c6cccs6)O[C@H]5[C@H](O)[C@H]3O)[C@H]3COC(=O)[C@H]23)OCO4)cc(OC)c1O [Teniposide]
3. O=C1c2c(O)ccc(O)c2C(=O)c2c(NCCNCCO)ccc(NCCNCCO)c21
4. CC(=O)O[C@H]1C(=O)[C@@]2(C)[C@H]([C@H](OC(=O)c3ccccc3)[C@]3(O)C[C@H](OC(=O)[C@H](O)[C@@H](NC(=O)c4ccccc4)c4ccccc4)C(C)=C1C3(C)C)[C@]1(OC(C)=O)CO[C@@H]1C[C@@H]2O [TAXOL, paclitaxel, reference compound]
5. NC(=O)NO [Hydroxyurea]
6. CC[C@]1(O)C[C@H]2CN(CCc3c([nH]c4ccccc34)[C@@](C(=O)OC)(c3cc4c(cc3OC)N(C=O)[C@H]3[C@@](O)(C(=O)OC)[C@H](OC(C)=O)[C@]5(CC)C=CCN6CC[C@]43[C@@H]65)C2)C1 [Vincristine sulfate]

[out]
1. 2
2. 2
3. 1
4. 3
5. 1
6. 2
